Molecular target: SARS-CoV-2 spike receptor-binding domain (RBD) (SARS-CoV-2, UniProt P0DTC2 319-541)
Assay: BLI
In this scheme, each record receives a class according to its koff; the ranges are small value: < 0.001 s⁻¹; mid value: ≥ 0.001 s⁻¹ and < 0.003 s⁻¹; large value: ≥ 0.003 s⁻¹

Check out these entries, answers already filled in.
binder	category
nanobody NM1226 (VHH) VHH: QVQLVESGGGSVQPGGSLRLSCLGSGSLDYYAIGWFRQAPGKEREGVSCIASSGDRTIYADSVKGRFTISRDYGKNTVYLQMNSLKPEDTAMYYCAALQGSYYYTGFVANEYDYWGQGAPVTVSS	mid value
nanobody NM1228 (VHH) VHH: DVQLVESGGGLVRPGGSLRLSCESSGRHFDIDTMGWYRQAPGKQRELVASITSEKSTVYADALKGRFTISRDIPDNNVYLQMNNLKPEDTAVYYCNAKMDPHSLDYALGNQVFWGQGSLVTVSS	small value
nanobody NM1227 (VHH) VHH: EVQLVESGGGLVQPGGSLTLSCETSGRHFDIDDMGWYRQAPGKQRELVACITTESSTTYADAVKGRFTISRDNPDNTVYLQMTNLKPEDTAVYYCNAEMHPRSLDYALGNRDYWGQGAPVTVSS	small value

Asked: Could you tell me which band nanobody NM1223 (VHH) VHH: EVQLVESGGGLVQPGGSLRLSCSASGFAFSSVSMSWVRLLPGKGTEWVAEIDRDGGNGNYEDSVKGRFTISRDNAKNTLFLQMNSLVPEDTALYYCRLGTRDHIMSGWGPGAPVTVSS belongs to?
Given back: small value

Asked: Class for nanobody NM1229 (VHH) VHH: EVQLQESGGGLVQPGESLRLSCAASGRTHDWYTMGWFRQAPGKEREFVARINWSSGMTYYADSVKGRFTISRDNPKNTVYLQMNSLTPDDTAVYYCNVHPFTSPDYWGQGTRVTVSS ?
Given back: large value

Asked: Please classify: nanobody NM1224 (VHH) VHH: DVQLVESGGSLVQPGGSLRLSCETSRSSLDAYAIGWFRQAPGKEREGVASISSSSMRTEYADSVKGRFTISRDNAKNTAYLDMNSLKPEDTAVYYCAAAGEYGRAWPGLDWYEFEYEGPGSPVTVSS
Given back: mid value

Asked: Band for nanobody NM1225 (VHH) VHH: QVQLVESGGGLVQPGGSLRLSCAASGNILRVHDMGWYRQAPGKQREYVAMITHGGITNYIDSVKGRFTISRDNAKNTVYLQMNSLKPEDTAVYYCHAVLSSALNGVTETSSNWGQGTQVTVSS ?
Given back: large value

Asked: Which koff band matches nanobody NM1230 (VHH) VHH: QVQLVESGGGLVRPGGSLRLSCVGSGFTFSGYAMNWYRQAPGKALELVAGISNAGDLTHYEEPMKGRVAISRANDKNTVYLQMDDLKPEDTAVYRCHAPGVRVGTGERKDVWGQGAQVTVSS ?
Given back: mid value
